Biological target: Xanthine dehydrogenase/oxidase (Bos taurus)
Sequence (P80457 whole entry): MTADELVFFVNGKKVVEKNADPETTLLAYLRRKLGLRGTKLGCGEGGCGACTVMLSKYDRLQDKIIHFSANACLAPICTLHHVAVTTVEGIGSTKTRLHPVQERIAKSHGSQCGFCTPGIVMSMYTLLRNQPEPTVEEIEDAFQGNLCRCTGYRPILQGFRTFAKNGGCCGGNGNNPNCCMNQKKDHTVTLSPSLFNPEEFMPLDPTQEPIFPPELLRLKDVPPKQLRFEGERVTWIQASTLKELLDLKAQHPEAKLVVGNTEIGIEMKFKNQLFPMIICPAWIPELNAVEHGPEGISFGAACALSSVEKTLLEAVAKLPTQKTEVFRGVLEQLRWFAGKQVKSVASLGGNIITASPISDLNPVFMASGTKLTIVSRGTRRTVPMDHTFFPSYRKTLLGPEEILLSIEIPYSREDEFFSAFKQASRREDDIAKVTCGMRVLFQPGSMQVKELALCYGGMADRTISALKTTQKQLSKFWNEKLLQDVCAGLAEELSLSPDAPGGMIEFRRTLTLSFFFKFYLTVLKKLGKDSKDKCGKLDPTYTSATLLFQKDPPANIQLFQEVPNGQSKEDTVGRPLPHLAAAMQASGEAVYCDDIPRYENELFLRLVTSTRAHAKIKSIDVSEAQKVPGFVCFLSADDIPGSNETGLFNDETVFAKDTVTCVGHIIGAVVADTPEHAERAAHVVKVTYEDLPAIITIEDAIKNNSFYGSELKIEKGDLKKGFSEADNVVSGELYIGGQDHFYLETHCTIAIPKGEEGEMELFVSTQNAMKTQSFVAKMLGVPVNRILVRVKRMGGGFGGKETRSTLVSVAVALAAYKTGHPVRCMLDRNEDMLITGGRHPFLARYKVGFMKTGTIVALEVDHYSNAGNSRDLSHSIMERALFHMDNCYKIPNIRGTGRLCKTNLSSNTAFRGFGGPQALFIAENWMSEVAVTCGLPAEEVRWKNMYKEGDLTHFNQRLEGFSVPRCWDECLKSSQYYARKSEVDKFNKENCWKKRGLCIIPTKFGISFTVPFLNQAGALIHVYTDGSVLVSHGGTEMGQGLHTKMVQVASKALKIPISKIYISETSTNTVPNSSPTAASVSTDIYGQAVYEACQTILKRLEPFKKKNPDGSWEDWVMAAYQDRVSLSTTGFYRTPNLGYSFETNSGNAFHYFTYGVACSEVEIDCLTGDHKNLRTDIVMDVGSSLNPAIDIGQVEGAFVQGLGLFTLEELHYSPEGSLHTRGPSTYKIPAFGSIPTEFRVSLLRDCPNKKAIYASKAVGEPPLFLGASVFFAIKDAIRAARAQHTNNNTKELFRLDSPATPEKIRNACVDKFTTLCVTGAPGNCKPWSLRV
Assay: Inhibition of bovine xanthine oxidase assessed as conversion of xanthine to uric acid by spectroscopic analysis
Details: read-out: IC50
RECORDED_METRIC: log10 IC50 (log10 of the value in µM)

• O=C(/C=C/c1ccc(O)c(O)c1)c1cc(O)ccc1O = 1.23
• O=C(/C=C/c1ccc(O)c(O)c1)c1c(O)cccc1O = 1.54
• O=C(/C=C/c1cccc(O)c1O)c1ccc(O)c(O)c1 = 1.97
• O=C(/C=C/c1ccc(O)c(O)c1)c1ccc(O)c(O)c1 = 0.48
• O=C(/C=C/c1cccc(O)c1)c1ccc(O)cc1O = 1.43
• O=C(/C=C/c1ccc(O)cc1)c1ccccc1 [4-HYDROXYCHALCONE] = 2.46
• O=C(/C=C/c1ccc(O)c(O)c1)c1ccc(O)cc1O = 0.11
• O=C(/C=C/c1ccc(O)c(O)c1)c1ccc(O)cc1 = 0.63
• O=C(/C=C/c1ccc(O)c(O)c1)c1cccc(O)c1 = 0.72
• O=C(/C=C/c1ccc(O)c(O)c1)c1ccccc1 = 1.72
• O=C(/C=C/c1ccc(O)c(O)c1O)c1ccc(O)c(O)c1 = 1.26
• O=C(/C=C/c1ccc(O)c(O)c1)c1cc(O)cc(O)c1 = 0.81
• O=C(/C=C/c1ccc(O)c(O)c1O)c1ccc(O)c(O)c1O = 0.74
• O=C(/C=C/c1cc(O)ccc1O)c1ccc(O)c(O)c1 = 0.93
• O=C(/C=C/c1ccc(O)c(O)c1)c1ccc(O)c(O)c1O = 0.08

====

Test: Antioxidant activity assessed as DPPH radical scavenging activity by measuring remaining DPPH level at 20 uM after 30 mins by plate reader analysis
Format: physicochemical
Conditions: 0.5 h
Lab note: anything with Activity below 40% is marked Y; values at 40% or higher are marked N.

* O=C(/C=C/c1ccccc1)c1ccc(O)cc1O [2',4'-DIHYDROXYCHALCONE] | Y
* O=C(/C=C/c1ccc(O)c(O)c1O)c1ccc(O)c(O)c1 | N
* O=C(/C=C/c1ccc(O)c(O)c1)c1ccc(O)c(O)c1 | N
* O=C(/C=C/c1ccccc1)c1ccc(O)cc1 [4'-HYDROXYCHALCONE] | Y
* O=C(/C=C/c1ccc(O)c(O)c1)c1ccc(O)c(O)c1O | N
* O=C(/C=C/c1ccccc1)c1ccccc1O [2'-HYDROXYCHALCONE] | Y
* O=C(/C=C/c1ccc(O)c(O)c1)c1ccc(O)cc1 | N
* O=C(/C=C/c1ccccc1)c1cccc(O)c1 | Y
* O=C(/C=C/c1ccc(O)c(O)c1)c1ccc(O)cc1O | N
* O=C(/C=C/c1ccccc1O)c1ccccc1 | Y
* O=C(/C=C/c1ccc(O)c(O)c1O)c1ccc(O)c(O)c1O | N
* O=C(/C=C/c1ccc(O)c(O)c1)c1c(O)cccc1O | N
* O=C(/C=C/c1ccc(O)cc1)c1ccccc1 [4-HYDROXYCHALCONE] | Y
* O=C(/C=C/c1ccc(O)c(O)c1)c1cc(O)cc(O)c1 | N
* O=C(/C=C/c1cccc(O)c1O)c1ccc(O)c(O)c1 | N
* O=C(/C=C/c1ccc(O)c(O)c1)c1cccc(O)c1 | N
* O=C(/C=C/c1cc(O)ccc1O)c1ccc(O)c(O)c1 | N
* O=C(/C=C/c1ccc(O)c(O)c1)c1cc(O)ccc1O | N
* O=C(/C=C/c1cccc(O)c1)c1ccc(O)cc1O | Y
* O=C(/C=C/c1ccc(O)c(O)c1)c1ccccc1 | N
